Target: lactic acid dehydrogenase (LDH) (Oryctolagus cuniculus, UniProt P13491)
Construct: purchased Shanghai Shangon NB0642
Assay: LDH kinetics and competitive inhibition by 4-nitroaniline (simultaneous GGT/LDH assay)
Assay type: biochemical, rabbit
observation_type: pKi
Quick note: pKi means taking -log10 of the concentration in moles per liter.

If you can, please state the reported pKi value of Nc1ccc([N+](=O)[O-])cc1 [4-nitroaniline] .
4.62

meta.source: patent US9611502B2
